Each recorded value in this set is attributed to PubChem BioAssay (NCI).

Test system: T-47D breast
Assay: NCI-60 one-dose screen, 48 h (100 = growth as untreated, 0 = no growth, -100 = all killed)
Conditions: 10 µM
This is part of a sample that, as a whole, favours compounds with a hit. Of some 83,000 tested, about 20% had one in any assay.
quantity.measured: growth (%)

COc1ccc(-c2nc3ncccn3c2-c2nnc(-c3ccsc3C)o2)cc1: 92.1
COc1ccc(OC)c(/C=C/c2nc(SCc3ccccc3)n(-c3ccc(Cl)cc3)n2)c1: 78
c1ccc(CP(Cc2ccccc2)c2ccccc2)cc1: 116
CCN1CCC(CCOC)(CN2c3ccccc3Sc3ccc(Cl)cc32)C1 (stereo unspecified): 70.5
O=C(CC(c1ccccc1)N1CCOCC1)c1ccccc1 (stereo unspecified): 72
COc1ccc(-c2cc(/C=C3\C(=O)Nc4ccc(OC)cc43)[nH]n2)cc1: 47.3
CCCCCCCCCCCCCC[n+]1ccc(C(N)=O)cc1: 46.9
S=c1[nH]ccn1-c1c(Cl)cccc1Cl: 91.2
Cc1ccc(C(=O)N2C/C(=C/c3ccccc3)C(=O)/C(=C/c3ccccc3)C2)cc1: 61.8
FC(F)(F)c1ccc2nc(-c3nc(-c4ccccc4)n4ccccc34)[nH]c2c1: 48.3
O=C(Nc1ccc(OS(=O)(=O)c2ccccc2)cc1)C12CC3CC(CC(C3)C1)C2: 27

###

System: SW-620 colon
Assay: NCI-60 one-dose screen, 48 h (100 = growth as untreated, 0 = no growth, -100 = all killed)
Details: 10 µM
This is part of a sample that, as a whole, favours compounds with a hit. Of some 83,000 tested, about 20% had one in any assay.
# cutoff 90% applies to growth; >= gives 1, < gives -1

Cc1ccc(C)c(C(O)(c2cc(C)ccc2C)C2(O)CCCCC2)c1: 1
CN(C)CCS(=O)(=O)CCN(C)C: 1
COc1cc(C2CC(c3ccc(Nc4ccnc5cc(Cl)ccc45)cc3)=NN2c2ccc(Cl)cc2)cc(OC)c1OC (configuration not stated): -1
CCN1CCN(c2nc3ccccc3c3c(=O)c4ccccc4sc23)CC1: -1
CN(C)c1ccc(N=C2C=CC(=O)c3ccccc32)cc1: 1
O=C(Nc1cccc(-n2cc(-c3ccncc3)c(-c3cc(O)cc(Cl)c3)n2)c1)c1cc(C(F)(F)F)cc(C(F)(F)F)c1: -1
O=C1/C(=C/c2ccc([N+](=O)[O-])o2)Oc2ccccc21: -1
O=[N+]([O-])c1ccc(Oc2cccnc2)c([N+](=O)[O-])c1: -1
NC(=O)SCC(=O)Nc1ccc(S(N)(=O)=O)cc1: 1
CC(=O)N1N=C(c2ccc(Cl)cc2)CC1c1sc(Cl)nc1Cl (configuration not stated): 1
N#CCCN1C/C(=C/c2ccccc2)C(=O)/C(=C/c2ccccc2)C1: -1
Nc1nc(Nc2ccccc2)n[nH]1: 1
CCN1CCCC1CNC(=O)c1ncc(-c2ccc(C(F)(F)F)cc2)c(NC2CCCCCC2)n1 (configuration not stated): 1
CC(=O)c1nc2ccccc2n1CCN1CCN(C)CC1: -1
COc1ccc2c(c1)O/C(=C\c1ccc([N+](=O)[O-])o1)C2=O: -1
O=C(Nc1nc(-c2ccccc2Cl)cs1)c1cc(-c2ccc(Cl)cc2)nc2ccc(Cl)cc12: -1
CC(=O)c1nc2ccccc2n1CCNC(N)=O: -1
O=C(O)CCCCSc1ncnc2nc[nH]c12: 1
CCOC(=O)CNC(=O)CCCCSc1ncnc2nc[nH]c12: 1
CC(C)=NNc1ncnc2c1ncn2C1OC(CO)C(O)C1O (configuration not stated): -1
COc1ccc(Nc2nc3ccc(NC(=O)NC4CCCCC4)cc3[nH]c2=O)cc1: 1
O=C1/C(=C\c2ccc(F)cc2)CN(C(=O)c2ccccc2)C/C1=C\c1ccc(F)cc1: -1
